Kindly supply the reported IC50 values for the records listed here.
Biological target: EGFR L858R/C797S (Homo sapiens, UniProt P00533, C797S/L858R)
Sequence (P00533 25-1210 C797S/L858R): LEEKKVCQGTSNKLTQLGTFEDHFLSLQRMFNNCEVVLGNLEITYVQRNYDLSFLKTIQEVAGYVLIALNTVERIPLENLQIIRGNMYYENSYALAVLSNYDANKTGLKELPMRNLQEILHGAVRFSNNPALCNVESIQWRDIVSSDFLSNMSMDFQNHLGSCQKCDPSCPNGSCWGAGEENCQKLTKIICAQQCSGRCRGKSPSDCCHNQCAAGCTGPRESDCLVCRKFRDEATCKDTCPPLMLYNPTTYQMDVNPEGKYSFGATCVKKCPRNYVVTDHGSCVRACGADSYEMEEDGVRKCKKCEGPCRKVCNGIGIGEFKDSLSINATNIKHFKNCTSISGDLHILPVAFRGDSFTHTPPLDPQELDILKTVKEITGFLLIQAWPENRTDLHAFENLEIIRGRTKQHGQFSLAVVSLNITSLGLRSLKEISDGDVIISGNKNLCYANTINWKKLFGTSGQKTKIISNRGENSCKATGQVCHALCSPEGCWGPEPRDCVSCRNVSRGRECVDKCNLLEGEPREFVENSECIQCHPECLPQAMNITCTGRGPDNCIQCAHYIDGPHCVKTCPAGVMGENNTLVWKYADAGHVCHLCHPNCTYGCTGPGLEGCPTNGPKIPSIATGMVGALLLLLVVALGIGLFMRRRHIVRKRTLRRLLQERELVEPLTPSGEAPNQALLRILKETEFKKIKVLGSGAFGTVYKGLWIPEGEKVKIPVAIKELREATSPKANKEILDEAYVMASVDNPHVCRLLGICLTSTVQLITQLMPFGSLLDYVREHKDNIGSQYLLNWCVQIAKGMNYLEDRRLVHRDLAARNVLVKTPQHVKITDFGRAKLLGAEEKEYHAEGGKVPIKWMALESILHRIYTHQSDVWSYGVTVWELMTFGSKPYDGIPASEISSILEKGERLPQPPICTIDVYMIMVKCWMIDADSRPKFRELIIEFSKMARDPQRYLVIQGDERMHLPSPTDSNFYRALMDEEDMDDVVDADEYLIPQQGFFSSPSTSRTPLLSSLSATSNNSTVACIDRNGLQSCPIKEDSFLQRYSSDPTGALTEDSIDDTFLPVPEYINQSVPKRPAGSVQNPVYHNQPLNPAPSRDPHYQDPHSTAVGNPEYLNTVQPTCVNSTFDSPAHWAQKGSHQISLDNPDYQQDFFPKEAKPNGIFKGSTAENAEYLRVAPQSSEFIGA
Experiment: Biochemical EGFR kinase inhibition assay (Lance Ultra TR-FRET), double mutant L858R/C797S
Settings: IC50 L858R/C797S (nM), 100 μM ATP

May I ask what IC50 has been recorded for CC(=O)N1CCC(n2cc(C#Cc3cnc(Nc4ccnc(-c5cnn(S(=O)(=O)C6CC6)c5)n4)cc3N3CCCC(CO)C3)cn2)CC1 (stereo not shown) [Example 115] ?
15.6 nM

Which value of IC50 has been reported for COC1(C)CCN(c2cc(Nc3ccnc(-c4cnn(S(=O)(=O)C5CC5)c4)n3)ncc2C#Cc2cccnc2)CC1 [Example 281] in the records?
287 nM

# get_value(readout='IC50', item= CC1(CO)CCN(c2cc(Nc3ccnc(-c4cnn(S(=O)(=O)C5CC5)c4)n3)ncc2C#CC2(O)CCCC2)CC1 [Example 177] )
66.5 nM

Look at this compound and give its reported IC50. O=S(=O)(C1CC1)n1cc(-c2nccc(Nc3cc(NC4CCC(CO)CC4)c(C#CC4CCCO4)cn3)n2)cn1 (stereo not shown) [Example 374]
75.1 nM
